Source: patent US20170354600A1

EXPERIMENTAL_PROTOCOL: GSH retention in solid composition exposed to hydrogen peroxide oxidation (Ellman colorimetric, 405 nm)
MEASUREMENT_PARAMETERS: 18.18 mmol antioxidant, 0.1 mmol GSH, 1 ml hydrogen peroxide 1.0% w/v
MEASUREMENT_NAME: Retention percentage after 6 hours of oxidation in solid compositions (%)

>>> result_number("O=C1O[C@H]([C@@H](O)CO)C(O)=C1O [Ascorbic acid, L-Ascorbic acid]")
18.18
>>> result_number("CC(=O)OC/C=C(C)/C=C/C=C(C)/C=C/C1=C(C)CCCC1(C)C [Vitamin A, Vitamin A acetate]")
46.36
>>> result_number("CC(=O)Oc1c(C)c(C)c2c(c1C)CC[C@@](C)(CCC[C@H](C)CCC[C@H](C)CCCC(C)C)O2 [Vitamin E, DL alpha tocopheryl acetate]")
39.61
>>> result_number("CCCCCCCCCCCCCCCC(=O)OC[C@H](O)[C@H]1OC(=O)C(O)=C1O [Ascorbyl palmitate]")
36.88
